Assay: CCTE_Shafer_MEA_acute_per_network_burst_spike_number_mean: CCTE's Neural Acute Assay for Average Number of Spikes in a Network Burst, Shafer Lab (AID 2284019)
Experimental: CCTE_Shafer_MEA_acute assay is conducted using Axion Biosystems 48 well microelectrode array (MEA) plates and Maestro recording system. Each well of the MEA plate contains a grid of 16 microelectrodes embedded in the culture surface. Electrically active cells, such as neurons, can be cultured over the electrodes, and electrical activity in these cells can be recorded extracellularly. […]
Active and inactive are the calls of the source. Rule for the calls: active = hit-call score of the fitted dose curve at least 0.9, where 1 is the maximum; inactive = score below 0.9.
Labels: 1 (yes) = active, 0 (no) = inactive

substance_smiles=OCC(CO)(CBr)CBr label_class="0 (no)"
substance_smiles=O=C1NS(=O)(=O)c2ccccc21 label_class="0 (no)"
substance_smiles=CCCCC=O label_class="0 (no)"
substance_smiles=CN(C)CCOC(c1ccccc1)c1ccccc1 label_class="0 (no)"
substance_smiles=CCCCCCCCCCCC label_class="0 (no)"
substance_smiles=CC(=O)Nc1ccc(O)cc1 label_class="0 (no)"
substance_smiles=CCCCc1oc2ccccc2c1C(=O)c1cc(I)c(OCCN(CC)CC)c(I)c1 label_class="0 (no)"
substance_smiles=Oc1c(Cl)cc(Cl)cc1Sc1cc(Cl)cc(Cl)c1O label_class="0 (no)"
substance_smiles=O=C(CCCN1CCC(O)(c2ccc(Cl)cc2)CC1)c1ccc(F)cc1 label_class="1 (yes)"

* * *

Target: Aryl hydrocarbon receptor (Homo sapiens) (UniProt P35869)
Sequence (P35869 whole entry, looked up): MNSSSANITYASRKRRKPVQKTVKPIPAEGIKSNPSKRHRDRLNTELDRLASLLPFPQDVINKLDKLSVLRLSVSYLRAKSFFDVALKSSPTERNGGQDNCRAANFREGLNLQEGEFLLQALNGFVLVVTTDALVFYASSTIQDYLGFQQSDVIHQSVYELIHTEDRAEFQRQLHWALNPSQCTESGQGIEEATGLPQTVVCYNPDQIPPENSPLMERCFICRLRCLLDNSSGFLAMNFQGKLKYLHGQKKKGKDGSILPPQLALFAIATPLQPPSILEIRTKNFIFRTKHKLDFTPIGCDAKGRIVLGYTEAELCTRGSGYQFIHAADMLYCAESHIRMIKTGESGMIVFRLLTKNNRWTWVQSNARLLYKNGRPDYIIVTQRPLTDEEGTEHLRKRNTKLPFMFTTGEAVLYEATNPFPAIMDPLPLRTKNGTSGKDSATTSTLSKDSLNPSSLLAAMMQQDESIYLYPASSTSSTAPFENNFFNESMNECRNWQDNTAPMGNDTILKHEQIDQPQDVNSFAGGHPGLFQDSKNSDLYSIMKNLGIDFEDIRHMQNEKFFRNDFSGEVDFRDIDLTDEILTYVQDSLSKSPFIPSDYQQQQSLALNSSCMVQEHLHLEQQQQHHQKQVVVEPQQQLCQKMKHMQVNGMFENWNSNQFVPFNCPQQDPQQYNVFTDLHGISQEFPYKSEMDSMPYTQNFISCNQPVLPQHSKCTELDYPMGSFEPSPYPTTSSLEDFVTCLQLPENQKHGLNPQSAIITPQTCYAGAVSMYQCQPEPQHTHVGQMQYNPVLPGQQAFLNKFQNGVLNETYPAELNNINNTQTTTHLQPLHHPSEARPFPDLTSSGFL
Test: ATG_Ahr_CIS: Attagene CIS-FACTORIAL HepG2 Assay for human Aryl Hydrocarbon Receptor (Ahr) (AID 2282930)
Settings: HepG2 AhR cis-factorial reporter transcription; actives raise or lower the signal
Calls of active or inactive are those of the source. Rule for the calls: active = hit-call score of the fitted dose curve at least 0.9, where 1 is the maximum; inactive = score below 0.9.
Labels: label 1 (active), label 0 (inactive)

compound=O=C1Cc2ccccc2N1c1c(Cl)cccc1Cl label_class="label 0"
compound=Cc1ccccc1OCC(=O)O label_class="label 0"
compound="CC1CCC(C(=O)O)CC1 (configuration not stated)" label_class="label 0"
compound=Cc1cc(C(=C2C=CC(=Nc3ccc(S(=O)(=O)O)cc3)C=C2)c2ccc(Nc3ccc(S(=O)(=O)O)cc3)cc2)cc(S(=O)(=O)O)c1N label_class="label 0"
compound=CCCCCCCCCCCC[N+](C)(C)CCCCCCCCCCCC label_class="label 0"
compound=CCCCCCCCCCCC(=O)NCCCN(C)C label_class="label 0"
compound=O=C(CCCN1CCC(O)(c2ccc(Cl)cc2)CC1)c1ccc(F)cc1 label_class="label 0"
compound=FC1(F)C=CC(F)(F)C1(F)F label_class="label 0"
compound=C=CC(=O)OCCN(CC)CC label_class="label 1"
compound=O=C(O)CCC(F)(F)C(F)(F)C(F)(F)C(F)(F)C(F)(F)C(F)(F)F label_class="label 0"
compound=COC(=O)C(F)(F)C(F)(F)C(F)(F)C(F)(F)C(F)(F)F label_class="label 0"
compound=Oc1c(Cl)ccc(Cl)c1Cl label_class="label 1"

* * *

Assay: ATG_XTT_Cytotoxicity: Cytotoxicity Assessment in the Attagene TRANS-FACTORIAL HepG2 Assay (AID 2283584)
Protocol: ATG_XTT_Cytotoxicity is a cell-based, single-readout assay that uses HepG2, a human liver cell line, with measurements taken at 24 hours after chemical dosing in a 24-well plate.ATG_XTT_Cytotoxicity is one of one assay component(s) measured or calculated from the ATG_XTT_Cytotoxicity assay. […] This assay endpoint, ATG_XTT_Cytotoxicity, was analyzed in the positive analysis fitting direction relative to DMSO as the negative control and baseline of activity. […]
Records with an inconclusive call do not appear. Calls of active or inactive are those of the source. Rule for the calls: active = hit-call score of the fitted dose curve at least 0.9, where 1 is the maximum; inconclusive = response in the unintended direction; inactive = score below 0.9.
Labels: active, inactive

molecule=CCCCCCCCCCCCCCC label_class=inactive
molecule=CC1=CC(=O)c2ccccc2C1=O label_class=inactive
molecule=Cn1sccc1=O label_class=inactive
molecule=Cc1[nH]nc2c1N=C(c1ccccc1Cl)c1cc([N+](=O)[O-])ccc1N2 label_class=inactive
molecule=O=C1OC(=O)c2cc(-c3ccc4c(c3)C(=O)OC4=O)ccc21 label_class=inactive
molecule=CC(C)c1c(C(=O)Nc2ccccc2)c(-c2ccccc2)c(-c2ccc(F)cc2)n1CC[C@@H](O)C[C@@H](O)CC(=O)O label_class=inactive
molecule=Oc1c(Cl)cc(Cl)cc1Sc1cc(Cl)cc(Cl)c1O label_class=active
molecule=COc1ccc(C#N)cc1 label_class=inactive
molecule=O=C(NO)c1ccccc1 label_class=inactive
molecule="CCC(C)c1ccccc1O (stereo not given)" label_class=inactive
molecule=C=COC(=O)C(C)(C)CCCCCC label_class=inactive
molecule="CC1CCC(C(=O)O)CC1 (stereo not given)" label_class=inactive
molecule=CCCCCCCCCCCCCC[n+]1ccccc1 label_class=active
molecule="CC1CNCC(C)O1 (stereo not given)" label_class=inactive
molecule=CCCCCCCCC(C)=O label_class=inactive

Cited source for all entries: PubChem BioAssay (EPA / NIEHS)
